Tested on: Plasmodium falciparum
Assay: Antimalarial activity against chloroquine-,pyrimethamine-resistant Plasmodium falciparum W2 assessed as inhibition of [3H]hypoxanthine incorporation after 96 hrs by microtiter plate scintillation counting
Assay type: functional, organism-based
PARAMETER MEASURED: pIC50
One number for each entry, as −log10 of the molar value.

{"SMILES REPR": "CC[C@H]1OC(=O)[C@H](C)[C@@H](O[C@H]2C[C@@](C)(OC)[C@@H](O)[C@H](C)O2)[C@H](C)[C@@H](O[C@@H]2O[C@H](C)C[C@H](N(C)C)[C@H]2O)[C@](C)(O)C[C@@H](C)CN(CCCNC(=S)NCc2ccc3c(c2)OCO3)[C@H](C)[C@@H](O)[C@]1(C)O", "MEASURED ON": "Plasmodium falciparum", "pIC50": 6.86}

Consider the record given below.
Query CC[C@H]1OC(=O)[C@H](C)[C@@H](O[C@H]2C[C@@](C)(OC)[C@@H](O)[C@H](C)O2)[C@H](C)[C@@H](O[C@@H]2O[C@H](C)C[C@H](N(C)C)[C@H]2O)[C@](C)(O)C[C@@H](C)CN(CCCNC(=O)NCc2ccco2)[C@H](C)[C@@H](O)[C@]1(C)O yields pIC50 of 6.54

====

Test system: Plasmodium falciparum
Assay: Antimalarial activity against chloroquine-sensitive Plasmodium falciparum D6 assessed as inhibition of [3H]hypoxanthine incorporation after 96 hrs by microtiter plate scintillation counting
Assay type: functional, organism-based
pIC50: −log10 of the molar value.
Note to self: values exactly at 6 are class 1. So pIC50 at or above 6 is class 1, below is class 0.

The examples below pair each entry with its known result.
{"SMILES REPR": "CC[C@H]1OC(=O)[C@H](C)[C@@H](O[C@H]2C[C@@](C)(OC)[C@@H](O)[C@H](C)O2)[C@H](C)[C@@H](O[C@@H]2O[C@H](C)C[C@H](N(C)C)[C@H]2O)[C@](C)(O)C[C@@H](C)CN(CCCNC(=O)Nc2cccc(Cl)c2)[C@H](C)[C@@H](O)[C@]1(C)O", "CLASS": "class 1"}
{"SMILES REPR": "CC[C@H]1OC(=O)[C@H](C)[C@@H](O[C@H]2C[C@@](C)(OC)[C@@H](O)[C@H](C)O2)[C@H](C)[C@@H](O[C@@H]2O[C@H](C)C[C@H](N(C)C)[C@H]2O)[C@](C)(O)C[C@@H](C)CN(CCCNC(=O)Nc2cccc(F)c2)[C@H](C)[C@@H](O)[C@]1(C)O", "CLASS": "class 1"}
{"SMILES REPR": "CCc1ccc(NC(=O)NCCCN2C[C@H](C)C[C@@](C)(O)[C@H](O[C@@H]3O[C@H](C)C[C@H](N(C)C)[C@H]3O)[C@@H](C)[C@H](O[C@H]3C[C@@](C)(OC)[C@@H](O)[C@H](C)O3)[C@@H](C)C(=O)O[C@H](CC)[C@@](C)(O)[C@H](O)[C@H]2C)cc1", "CLASS": "class 1"}
{"SMILES REPR": "CC[C@H]1OC(=O)[C@H](C)[C@@H](O[C@H]2C[C@@](C)(OC)[C@@H](O)[C@H](C)O2)[C@H](C)[C@@H](O[C@@H]2O[C@H](C)C[C@H](N(C)C)[C@H]2O)[C@](C)(O)C[C@@H](C)CN(CCCNC(=S)Nc2ccsc2C(=O)OC)[C@H](C)[C@@H](O)[C@]1(C)O", "CLASS": "class 1"}

Continue with the compound presented below.
Inquiry: Would you say CC[C@H]1OC(=O)[C@H](C)[C@@H](O[C@H]2C[C@@](C)(OC)[C@@H](O)[C@H](C)O2)[C@H](C)[C@@H](O[C@@H]2O[C@H](C)C[C@H](N(C)C)[C@H]2O)[C@](C)(O)C[C@@H](C)CN(CCCNC(=S)Nc2ccc(N3CCOCC3)nc2)[C@H](C)[C@@H](O)[C@]1(C)O shows pIC50 at minimum 6?
Reply text: class 0
